Reference source for all entries: patent US20070293656A1

# MEASUREMENT TARGET: human collagen type I (acid soluble, extracted from placenta, Sigma C7774) (human) (UniProt P02452)
# Sequence (P02452 162-1218 limits assumed, chain 1 of 2): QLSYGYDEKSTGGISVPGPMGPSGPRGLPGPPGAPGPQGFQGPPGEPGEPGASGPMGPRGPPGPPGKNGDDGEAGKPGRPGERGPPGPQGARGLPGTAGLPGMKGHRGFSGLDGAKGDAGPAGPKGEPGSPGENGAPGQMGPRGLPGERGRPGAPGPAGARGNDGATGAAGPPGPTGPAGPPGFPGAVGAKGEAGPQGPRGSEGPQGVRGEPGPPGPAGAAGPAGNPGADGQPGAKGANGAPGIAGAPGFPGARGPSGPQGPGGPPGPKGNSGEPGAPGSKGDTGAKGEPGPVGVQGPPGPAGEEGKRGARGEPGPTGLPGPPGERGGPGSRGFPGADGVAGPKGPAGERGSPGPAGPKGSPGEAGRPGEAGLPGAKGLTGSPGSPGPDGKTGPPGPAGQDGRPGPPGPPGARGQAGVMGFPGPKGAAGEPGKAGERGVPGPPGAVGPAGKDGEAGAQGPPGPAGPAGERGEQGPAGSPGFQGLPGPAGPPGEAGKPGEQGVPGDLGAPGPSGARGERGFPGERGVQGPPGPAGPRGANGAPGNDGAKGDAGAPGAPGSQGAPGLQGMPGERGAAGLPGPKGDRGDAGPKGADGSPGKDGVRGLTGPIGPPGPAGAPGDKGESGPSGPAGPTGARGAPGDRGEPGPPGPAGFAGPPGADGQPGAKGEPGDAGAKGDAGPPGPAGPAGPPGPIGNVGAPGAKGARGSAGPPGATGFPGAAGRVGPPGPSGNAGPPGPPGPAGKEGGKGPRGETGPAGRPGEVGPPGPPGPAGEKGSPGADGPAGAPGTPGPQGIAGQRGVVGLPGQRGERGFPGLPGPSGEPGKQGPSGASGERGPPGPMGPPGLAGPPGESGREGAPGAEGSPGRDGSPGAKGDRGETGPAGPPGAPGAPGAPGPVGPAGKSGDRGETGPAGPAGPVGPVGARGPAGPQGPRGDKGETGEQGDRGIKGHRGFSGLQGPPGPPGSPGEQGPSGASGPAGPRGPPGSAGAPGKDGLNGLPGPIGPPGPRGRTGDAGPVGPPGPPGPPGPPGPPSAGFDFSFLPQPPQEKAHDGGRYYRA
# Sequence (P08123 80-1119 limits assumed, chain 2 of 2, further chain): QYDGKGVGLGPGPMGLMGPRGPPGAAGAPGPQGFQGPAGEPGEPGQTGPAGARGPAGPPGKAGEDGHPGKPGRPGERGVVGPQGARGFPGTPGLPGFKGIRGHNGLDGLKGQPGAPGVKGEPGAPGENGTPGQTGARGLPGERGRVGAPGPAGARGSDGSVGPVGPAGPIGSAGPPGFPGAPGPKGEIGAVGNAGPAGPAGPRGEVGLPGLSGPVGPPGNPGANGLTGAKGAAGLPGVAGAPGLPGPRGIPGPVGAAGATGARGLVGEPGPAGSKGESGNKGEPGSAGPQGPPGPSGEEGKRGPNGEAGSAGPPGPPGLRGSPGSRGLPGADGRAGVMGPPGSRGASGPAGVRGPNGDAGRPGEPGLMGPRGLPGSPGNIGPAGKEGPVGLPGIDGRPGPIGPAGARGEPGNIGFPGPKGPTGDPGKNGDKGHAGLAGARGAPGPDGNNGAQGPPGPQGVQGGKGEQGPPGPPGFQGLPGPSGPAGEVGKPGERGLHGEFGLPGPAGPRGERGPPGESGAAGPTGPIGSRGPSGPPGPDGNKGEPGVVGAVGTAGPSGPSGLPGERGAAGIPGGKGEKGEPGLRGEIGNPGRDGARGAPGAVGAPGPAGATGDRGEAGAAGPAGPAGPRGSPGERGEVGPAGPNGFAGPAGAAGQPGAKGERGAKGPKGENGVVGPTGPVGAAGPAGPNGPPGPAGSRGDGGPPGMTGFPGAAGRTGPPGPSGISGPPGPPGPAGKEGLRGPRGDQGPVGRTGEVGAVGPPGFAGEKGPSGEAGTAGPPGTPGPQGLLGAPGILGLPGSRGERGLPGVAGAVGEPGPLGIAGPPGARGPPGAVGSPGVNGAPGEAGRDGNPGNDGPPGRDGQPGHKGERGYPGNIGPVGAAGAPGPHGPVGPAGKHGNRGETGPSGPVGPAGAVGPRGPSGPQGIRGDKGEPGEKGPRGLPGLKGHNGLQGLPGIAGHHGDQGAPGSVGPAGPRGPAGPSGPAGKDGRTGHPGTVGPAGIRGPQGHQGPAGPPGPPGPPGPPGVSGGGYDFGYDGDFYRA
# RUN DESCRIPTION: dried collagen assay
Bridge positions count the residues as written; N and C are the ends. Square brackets hold non-standard residues; d marks the D form. Primed or numbered codes have the meaning given here. Ends that are not written are not given here. * marks the point of attachment. Orn = NCCC[C@H](N)C(=O)O; Gd^T = not defined here; Gd^T″ = GdDTPA-thiourea; Cbz = O=C(OCc1ccccc1)*
We'd kindly ask you to apply these % bound classes: lower band = under 7%, central band = from 7% up to 10%, upper band = 10% and over

Solved cases below.
### Prompt Category of RWSCVLDADGWVCSDN (disulfide 4-13 (inferred)) [SEQ ID NO: 66] , please.
### Response lower band

### Prompt Moving on to the next binder: TWACDLDEYGGWQCYTG (disulfide 4-14 (inferred)) [SEQ ID NO: 78]
### Response central band

### Prompt One more binder: {Gd^T″}-GAWTCSGDEYTWHCNYE (disulfide 5-14 (inferred)) [Comp ID 830]
### Response upper band

### Prompt Next: {Gd^T}-DWTCS[dS]DEYTWHCNYE (disulfide 4-13 (inferred); not fully specified (C-terminus); printed as Gd^T-DWTCSsDEYTWHCNYE; reading uncertain) [Comp ID 836]
### Response upper band

### Prompt Check YHACYQAGCYIY (disulfide 4-9 (inferred)) [SEQ ID NO: 108] too.
### Response lower band

---
### Prompt Which bin, given its % bound, does Cbz-GQWHCT[Orn](Gd^T″)RFPHHYCLYG (disulfide 5-14; not fully specified (C-terminus); printed as cbz-GQWHCT-Orn(Gd^T)-RFPHHYCLYG) [Comp ID 941] occupy?
### Response central band

### Prompt Record: WQVCADSPGVITYCYTY (disulfide 4-14 (inferred)) [SEQ ID NO: 98]
### Response lower band

### Prompt Query GQWHCTTDFPHHYCLYG (not fully specified; Gd^T-GQWHCTTD-F(4-CN)-PHHYCLYG) [Comp ID 883] next
### Response central band

### Prompt What do you get for {Gd^T″}-GQWTCSGDEYAWHCNY[dE] (disulfide 5-14 (inferred)) [Comp ID 832] ?
### Response upper band

### Prompt Repeat with {Gd^T″}-DWTCSGDEYYWHCNYE (disulfide 4-13 (inferred)) [Comp ID 834]
### Response upper band

### Prompt // next record GQWHCTTRFPHAYCLYG (not fully specified; Gd^T-GQWHCTTRFPHAYCLYG) [Comp ID 878]
### Response central band

### Prompt // query: {Gd^T″}-GQWTCSGDEYTWACNYE (disulfide 5-14 (inferred)) [Comp ID 833]
### Response upper band

### Prompt Same again, this time with {Gd^T″}-GQWHCTTRFPHHYCLYG[dK](Gd^T″) (disulfide 5-14 (inferred)) [Comp ID 808]
### Response upper band

### Prompt Let us now turn to GQWHCTTRFPHHXCLYG (not fully specified; Gd^T-GQWHCTTRFPHH-bip-CLYG) [Comp ID 903]
### Response lower band

### Prompt Same question, DWTCSGDEYTWYCNYE (not fully specified; Gd^T-DWTCSGDEYTWYCNYE) [Comp ID 842] this time
### Response upper band
